B1: FCHO1 (parent)
chain: FTSSPSPFSSSSPENVEDSGLDSP

variants of: B1; test: protein stability index of a GFP-peptide fusion (GPS, HEK-293T) (PSI 1-6); higher = more stable; conditions: c terminus: a fixed tail appended;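 note: lentivirally expressed fusions sorted by FACS into six bins by GFP to DsRed ratio, PSI derived from sequencing read proportions per bin multiplied by bin number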
Output YES for protein stability index not less than 2; output NO otherwise.

1. P24S : NO
2. S10T : YES
3. S11C : YES
4. F1L : YES
5. P24H : YES
6. S12P : YES
7. P5Q : YES
8. V16C : YES
9. S6M : NO
10. V16A : YES

The reported measurements were obtained from the supplement of paper PMC10567573.
